B1: ZBTB22 (parent)
chain: HTGLKPYECGVCAKKFMWRDSFMR

Variants of: B1
Assay: protein stability index of a GFP-peptide fusion (GPS, HEK-293T) (PSI 1-6); higher = more stable;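 further: lentivirally expressed fusions sorted by FACS into six bins by GFP to DsRed ratio, PSI derived from sequencing read proportions per bin multiplied by bin number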
Conditions: c terminus: a fixed tail appended
measurement name: protein stability index

• K14F = 1.99
• R19Q = 2.03
• Y7S = 1.97
